Measured values drawn from ChEMBL document CHEMBL5303304 for this set.

Tested on: HEK-293T
Assay: Incucyte cell viability with HEK293T; note: unitless GR value; below 1 slowed growth and below 0 cell loss
Type: toxicity, cell-based
Settings: human, 18 h, 10 µM, compound concentration 10 uM, replicate number 2
QUANTITY KIND: Growth Rate
Answers are plain numbers.

# COMPOUND, ENDPOINT VALUE
records = [
    ("COc1cccc(-c2c(C)c(Cc3c(F)cccc3C(F)(F)F)c3n(c2=O)[C@@H]([C@@H](N)c2ccccc2)CS3)c1F", 0.5),
]

Look at each compound and report its Growth Rate.
1. CCCCCCCN(CCc1ccc(SC(C)(C)C(=O)O)cc1)C(=O)Nc1ccc(F)cc1F
2. Cc1nccn1CC1CCc2c(c3ccccc3n2C)C1=O.Cl (centres undefined)
3. CN1C(=O)c2c(nn(Cc3ccc(-c4cccc(F)n4)cc3)c2Nc2ccccc2)N2C1=N[C@@H]1CCC[C@@H]12.O=P(O)(O)O [LENRISPODUN PHOSPHATE]

1. 0.5
2. 0.79
3. 0.79
